biological target: T1, cynomolgus monkey CD8A on primary cynomolgus monkey CD8+ T cells (cynomolgus monkey, UniProt P01732 23-235 (human entry)); experiment: flow cytometry, cyno CD8+ T cells, 0.2 uM FN3
T1 construct: also called Cyno CD8alpha
T1 sequence (P01732 other isoform, or with tags, fused parts or gaps limits assumed): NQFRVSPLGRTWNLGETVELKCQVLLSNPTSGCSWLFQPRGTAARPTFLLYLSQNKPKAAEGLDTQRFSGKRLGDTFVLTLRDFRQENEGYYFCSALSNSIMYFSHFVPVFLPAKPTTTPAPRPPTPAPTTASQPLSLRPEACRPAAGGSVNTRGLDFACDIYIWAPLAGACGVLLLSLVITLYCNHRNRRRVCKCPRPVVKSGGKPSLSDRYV
PROPERTY_LABEL: Cyno T-cell Binding 0.2 uM (MFI)
Include the unit right after the number.

# Cyno T-cell Binding 0.2 uM (MFI) (binder: P282CR9P1358_C2 (designed binder, FN3 domain) LPAPKNLVVSRVTEDSARLSWTAPDAAFDSFKIAYPEWPSNGEAIVLTVPGSERSYDLTGLKPGTEYAVFIWGVKGGAFSNPLSAIFTT ) is 7050 MFI

# Cyno T-cell Binding 0.2 uM (MFI) (binder: P282BR9P1357_E5 (designed binder, FN3 domain) LPAPKNLVVSRVTEDSARLSWWPRKYQRPFDSFLIQYQESEKVGEAIVLTVPGSERSYDLTGLKPGTEYTVSIYGVDIEWIGNRPIASNPLSAIFTT ) is 4100 MFI

Ref: patent US20210032312A1
